From: PubChem BioAssay

protocol.description: UWB1.289_BRCA1 ovarian cancer growth, cell-based, BGB or cisplatin combinations (AID 1671459)
measurement.parameters: UWB1.289 BRCA1 ovarian carcinoma, drug combinations, BGB combination, concentration series, at 5 µM, stronger effect = higher value
Measured inhibition of individual entries
Numbers only; they are read as %.

// worked examples, inhibition included
>  <molecule>
C=C1[C@H](CO)[C@@H](O)C[C@@H]1n1cnc2c(=O)[nH]c(N)nc21

>  <value.unit>
%

>  <inhibition>
-20.8

$$$$
>  <molecule>
Cc1ccc([N+](=O)[O-])cc1S(=O)(=O)N(C)/N=C/c1cnc2ccc(Br)cn12

>  <value.unit>
%

>  <inhibition>
89.2

$$$$
>  <molecule>
COc1ccc(C(=O)C2CCN(CC(=O)N(Cc3nc4c(c(=O)[nH]3)COCC4)CC3CC3)CC2)cc1

>  <value.unit>
%

>  <inhibition>
1.7

$$$$
>  <molecule>
CC(=O)Nc1ccc(C(=O)Nc2ccccc2N)cc1

>  <value.unit>
%

>  <inhibition>
68.5

$$$$
>  <molecule>
COc1cc(C=O)c([N+](=O)[O-])cc1OC

>  <value.unit>
%

>  <inhibition>
0.582

$$$$
>  <molecule>
COc1cc2ncnc(-n3nc(-c4ccccn4)nc3N)c2cc1OC

>  <value.unit>
%

>  <inhibition>
15

$$$$
>  <molecule>
N=C1CCCN1Cc1[nH]c(=O)[nH]c(=O)c1Cl

>  <value.unit>
%

>  <inhibition>
3.78

$$$$
>  <molecule>
Cc1ccc2nc(NCCN)c3ncc(C)n3c2c1

>  <value.unit>
%

>  <inhibition>
91.7

$$$$

// inhibition value for "O=C(/C=C/c1cccc(S(=O)(=O)Nc2ccccc2)c1)NO" : 99.6

The recorded inhibition for COc1ccc(C(=O)CC2(O)C(=O)Nc3c(Cl)ccc(Cl)c32)cc1 (stereo not given) is 47.8
